Below, each entry is listed alongside its reported cytotoxicity.
# METHOD NOTES: cytotoxicity in HPDE-C7 cells, cell-based, fluorescence, HTS (AID 430);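 note: cells exposed to compound for 48 hours before viability readout; 0% = vehicle and 100% = reference cytotoxic drug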
# CONDITIONS: HPDE-C7 pancreatic duct cells viability, at 10 µM, active compounds read high
Out of some 63,000 compounds screened, about 1,100 (1.7%) were called active. This is one part of a sample in which actives are shown more often than they occur. Entries with a potency or affinity are not part of this list.
REPORTED ENDPOINT: cytotoxicity (%)

COMPOUND	REPORTED ENDPOINT	VALUE
CCc1c(C)nc2ncnn2c1NCCc1ccc(OC)c(OC)c1	cytotoxicity	4.7
Cc1ccc(C)c(S(=O)(=O)C(C#N)c2nc3ccccc3nc2N2CC(C)OC(C)C2)c1 (stereo not drawn)	cytotoxicity	48.7
COc1ccc(CCn2c(N)c(C(=O)NCc3ccco3)c3nc4ccccc4nc32)cc1OC	cytotoxicity	32.4
Cc1ccc(S(=O)(=O)C(C#N)c2nc3ccccc3nc2N2CCCC2)cc1C (stereo not drawn)	cytotoxicity	53.9
COc1ccc(-n2nnnc2S(=O)(=O)CC(=O)N2CCCCC2)cc1	cytotoxicity	76.4
COc1cc(OC)cc(-n2nnnc2SCC(=O)N2CCCC2)c1	cytotoxicity	-7.2
CCOc1ccc(N2C(=O)C3CCCN3C2=O)cc1 (stereo not drawn)	cytotoxicity	3.6
Cc1ccc(C(=O)NC(Cc2c[nH]c3ccccc23)C(=O)O)o1 (stereo not drawn)	cytotoxicity	-0.1
Cc1cccc(S(=O)(=O)C(C#N)c2nc3ccccc3nc2N2CC(C)OC(C)C2)c1 (stereo not drawn)	cytotoxicity	7.1
CN(c1ccc(C(=O)NCc2ccccc2)cc1)S(C)(=O)=O	cytotoxicity	-26.5
COc1ccc(CCNc2c(C)c(C)nc3ncnn23)cc1	cytotoxicity	10
Nc1ccc(-n2c(N)c(C(=O)NCc3ccc4c(c3)OCO4)c3nc4ccccc4nc32)cc1	cytotoxicity	26.7
C=CCNc1nc(NCc2ccccc2)c(C#N)c2c1CN(C)CC2	cytotoxicity	14.5
Cc1nc(NC(=O)c2ccco2)sc1C(=O)Nc1ccc(Br)cc1	cytotoxicity	65.7
NC1=NC2(CCN(Cc3ccccc3)CC2)n2c(nc3ccccc32)N1	cytotoxicity	0.8
NC1=NC2(CCCCC2)n2c(nc3ccccc32)N1	cytotoxicity	11.9
COc1ccc(-n2nnnc2S(=O)(=O)Cc2ccc(C(=O)O)cc2)cc1	cytotoxicity	4.8
CCOC(=O)c1sc(NC(=O)c2ccco2)nc1C	cytotoxicity	-1.4
Cc1[nH]c2ccccc2c1C(=O)CN1CCCCC1CCO (stereo not drawn)	cytotoxicity	-11.2
CC(=O)C1=C(O)C(=O)N(Cc2cccnc2)C1c1ccc(Cl)cc1Cl (stereo not drawn)	cytotoxicity	-17.4
N#Cc1c(NCCO)nc(NCc2ccccc2)c2c1CCN(Cc1ccccc1)C2	cytotoxicity	34.2
Nc1c(C(=O)NCCN2CCOCC2)c2nc3ccccc3nc2n1-c1ccc2c(c1)OCO2	cytotoxicity	1
Nc1nnc(-c2ccco2)s1	cytotoxicity	-4.3
